Test system: MCF-7 cell line
Assay: MTT cytotoxicity assay, MCF-7
Format: cell-based, human
Conditions: Homo sapiens, MCF7; MTT assay; mean ± SD of three experiments
Define the label as criterion met when IC50 is strictly less than 10 µM and as criterion not met in all remaining cases.

Answered cases to consult:
CCOC(=O)CC(C)=NNC(=O)c1ccc(N=C2C(=O)Nc3ccccc32)cc1 [Compound 14a] ... criterion met
O=C1Nc2ccc(F)cc2C1=Nc1ccc(-c2n[nH]c(=S)o2)cc1 [Compound 15b] ... criterion not met

INPUT: # strict comparison: is reported IC50 < 10 µM? input = O=C1Nc2ccccc2C1=Nc1ccc(C(=O)NN=Cc2cccc([N+](=O)[O-])c2)cc1 [Compound 10c]
OUTPUT: criterion not met

INPUT: # strict comparison: is reported IC50 < 10 µM? input = O=C1Nc2ccc(F)cc2C1=Nc1ccc(C(=O)NN=Cc2ccc(Br)cc2)cc1 [Compound 10g]
OUTPUT: criterion met

INPUT: # strict comparison: is reported IC50 < 10 µM? input = O=C1Nc2ccccc2C1=Nc1ccc(C(=O)NN=Cc2ccc(Cl)cc2)cc1 [Compound 10b]
OUTPUT: criterion not met

INPUT: # strict comparison: is reported IC50 < 10 µM? input = CCOC(=O)c1ccc(/N=C2\C(=O)Nc3ccccc32)cc1
OUTPUT: criterion not met

INPUT: # strict comparison: is reported IC50 < 10 µM? input = O=C1Nc2ccc(F)cc2C1=Nc1ccc(C(=O)NN2C(=O)c3ccccc3C2=O)cc1 [Compound 12b]
OUTPUT: criterion not met

INPUT: # strict comparison: is reported IC50 < 10 µM? input = O=C1Nc2ccccc2C1=Nc1ccc(C(=O)NN=Cc2ccc([N+](=O)[O-])cc2)cc1 [Compound 10a]
OUTPUT: criterion not met

The reported measurements were obtained from paper PMC9698773.
